Target: PPARγ (Homo sapiens)
Construct: expressed in transfected cells; host or cells: CHO-K1
Sequence (P37231 29-505): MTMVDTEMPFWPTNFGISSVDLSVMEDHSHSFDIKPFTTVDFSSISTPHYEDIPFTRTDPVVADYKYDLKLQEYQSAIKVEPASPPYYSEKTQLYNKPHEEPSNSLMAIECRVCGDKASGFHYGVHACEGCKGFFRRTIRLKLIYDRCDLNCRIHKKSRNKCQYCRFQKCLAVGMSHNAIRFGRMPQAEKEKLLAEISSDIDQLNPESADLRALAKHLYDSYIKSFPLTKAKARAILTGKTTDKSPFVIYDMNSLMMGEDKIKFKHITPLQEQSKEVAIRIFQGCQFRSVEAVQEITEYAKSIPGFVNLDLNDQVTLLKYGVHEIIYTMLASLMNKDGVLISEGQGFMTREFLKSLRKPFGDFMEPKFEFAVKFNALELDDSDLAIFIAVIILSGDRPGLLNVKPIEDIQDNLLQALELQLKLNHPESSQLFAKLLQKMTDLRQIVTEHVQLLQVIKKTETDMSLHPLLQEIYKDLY
Sequence (P19793 whole entry partner): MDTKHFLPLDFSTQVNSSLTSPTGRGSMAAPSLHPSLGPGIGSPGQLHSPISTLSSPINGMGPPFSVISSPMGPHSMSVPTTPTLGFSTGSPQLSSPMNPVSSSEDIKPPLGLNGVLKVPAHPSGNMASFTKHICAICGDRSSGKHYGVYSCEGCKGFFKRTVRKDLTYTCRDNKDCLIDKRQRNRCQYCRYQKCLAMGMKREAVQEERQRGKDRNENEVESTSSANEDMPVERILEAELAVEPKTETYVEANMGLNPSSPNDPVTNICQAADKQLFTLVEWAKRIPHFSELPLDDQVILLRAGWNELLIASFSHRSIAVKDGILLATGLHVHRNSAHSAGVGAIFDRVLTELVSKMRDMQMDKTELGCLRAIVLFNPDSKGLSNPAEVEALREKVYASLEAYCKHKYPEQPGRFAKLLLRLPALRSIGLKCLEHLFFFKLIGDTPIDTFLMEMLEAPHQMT
Assay: Evaluation of PPARγ activating action (luciferase reporter in PPARγ:RXRα:4ERPP/CHO-K1 cells)
Assay type: cell-based
Conditions: CHO-K1, 24 h; test compound 10^−6 M; luciferase activity relative to control compound X (1 μM) = 100%, non-administration group = 0%; read-out: PPARγ activating action (activation % (10^−6 M))
Method: PPARγ:RXRα:4ERPP/CHO-K1 cells obtained in the following Reference Example 5 were cultured in F12 medium [manufactured by INVITROGEN, USA] containing 10% fetal bovine serum [manufactured by MOREGATE, Australia], seeded in a 96-well half area white plate [manufactured by Corning Coster Corporation, USA] at the density of 5×10^3 cells/well and cultured in a CO2 gas incubator at 37° C. overnight. […]
Metric: activation at 1 µM (%)

// solved cases for activation at 1 µM follow
CCCc1nc(CC)n(-c2ccc(OC3CCCC3=O)cc2)c(=O)c1Cc1ccc(-c2ccccc2-c2noc(=O)[nH]2)cc1 (stereo not shown)	27.2
CCSc1nc(C)c(Cc2ccccc2)c(=O)n1Cc1ccc(-c2ccccc2-c2noc(=O)[nH]2)cc1	57.1

A. CCCCc1nc(C)n(Cc2cccs2)c(=O)c1Cc1ccc(-c2ccccc2-c2noc(=O)[nH]2)cc1
B. CCCc1nc(C)c(-c2ccc(OC(C)C)cc2)c(=O)n1Cc1ccc(-c2ccccc2-c2noc(O)n2)cc1F
Of A and B , which shows the smaller activation at 1 µM value? # answer = label of selected item
B
(B: 23.7%, A: 55.6%)

* * *

Biological target: PPARγ (Homo sapiens)
Construct: expressed in transfected cells; host or cells: CHO-K1
Assay: Evaluation of PPARγ activating action (luciferase reporter in PPARγ:RXRα:4ERPP/CHO-K1 cells)
Assay type: cell-based
Details: CHO-K1, 24 h; test compound 10^−6 M; luciferase activity relative to control compound X (1 μM) = 100%, non-administration group = 0%; read-out: PPARγ activating action (activation % (10^−6 M))
Protocol: PPARγ:RXRα:4ERPP/CHO-K1 cells obtained in the following Reference Example 5 were cultured in F12 medium [manufactured by INVITROGEN, USA] containing 10% fetal bovine serum [manufactured by MOREGATE, Australia], seeded in a 96-well half area white plate [manufactured by Corning Coster Corporation, USA] at the density of 5×10^3 cells/well and cultured in a CO2 gas incubator at 37° C. overnight. […]
Metric: activation at 1 µM (%)

A. CCCc1nc(C)c(-c2ccc(OCC3CC3)nc2)c(=O)n1Cc1ccc(-c2ccccc2-c2noc(=O)[nH]2)cc1F [Example 501]
B. CCCCc1nc(COC)n(CC(C)(C)C)c(=O)c1Cc1ccc(-c2ccccc2-c2noc(=O)[nH]2)cc1 [Example 51]
Which of these two has the smaller recorded activation at 1 µM: A or B ? Identify your selection by its label.
B
(B: 19.6%, A: 31.8%)

A. CCCc1nc(C)n(-c2ccc(OC(C)C)cc2)c(=O)c1Cc1ccc(-c2ccccc2-c2noc(=O)[nH]2)cc1F [Example 141]
B. CCCc1nc(CC)n(-c2ccc(OC3CCOC(C)(C)C3)cc2)c(=O)c1Cc1ccc(-c2ccccc2-c2noc(=O)[nH]2)cc1 (stereo not shown) [Example 413]
Select one: A or B . Criterion: greater recorded activation at 1 µM. Respond using the label that marks the chosen record.
A

I. CCCc1nc(CC)c(-c2ccc(OCC)nc2)c(=O)n1Cc1ccc(-c2ccccc2-c2noc(O)n2)cc1 [Example 507]
II. CCCCc1nc(C)n(Cc2ccc(OC)nc2)c(=O)c1Cc1ccc(-c2ccccc2-c2noc(=O)[nH]2)cc1 [Example 71]
III. CCCc1nc(CC)c(Oc2cc(F)ccc2F)c(=O)n1Cc1ccc(-c2ccccc2-c2noc(=O)[nH]2)cc1 [Example 484]
Arrange these 3 compounds in increasing order of activation at 1 µM. Present the labels in the sequence the task asks for.
III, I, II

P. CCCc1nc(C)n(-c2ccc(OC(C)CF)cc2)c(=O)c1Cc1ccc(-c2ccccc2-c2noc(=O)[nH]2)cc1 (stereo not shown) [Example 277]
Q. CCCc1nc(CC)n(-c2ccc(O[C@H]3CC[C@@H](O)CC3)cc2)c(=O)c1Cc1ccc(-c2ccccc2-c2noc(=O)[nH]2)cc1 [Example 415]
Lab notebook, comparison: P versus Q , higher activation at 1 µM goes to which? Output the label that corresponds to your choice.
Q
